- Assay explanation: Mouse plasma stability
- Type: in vitro ADME
- Recorded conditions: mouse, plasma; 120 min
Measurement kind: remaining at 2 h (%)
Kindly provide the numeric value in % only, without the unit symbol.

remaining at 2 h measured on Cc1c(C(F)(F)F)oc2ncnc(SCC(=O)N3CC(=O)N(C)C3)c12 = 110

====

- Assay explanation: Mouse pharmacokinetics, single oral dose
- Type: in vivo
- Recorded conditions: C57BL/6, mouse, po; plasma; male C57BL6 mice, p.o. 10 mg/kg
- Procedure: At this point, mouse pharmacokinetic data for 5l was generated in vivo to determine the extent of plasma exposure and to check the correlation of the in vitro ADME data with in vivo outcomes. Animal Testing Declaration: In vivo mouse pharmacokinetic data was generated at GVK Biosciences, Hyderabad, India. GVK Biosciences is accredited by AAALAC and OLAW for the ethical treatment of animals. All the animal experiments are conducted in accordance with IAEC approved protocols. […]
Measurement kind: Cmax at 24 h (ng/mL)
Kindly provide the numeric value in ng/mL only, without the unit symbol.

Cmax at 24 h measured on Cc1c(C(F)(F)F)oc2ncnc(SCC(=O)N3CC(=O)N(C)C3)c12 = 3850

====

- Assay explanation: Metabolic stability in mouse liver microsomes (MLM)
- Assay type: in vitro ADME
- Recorded conditions: mouse liver microsomes
Our labelling divides records by MLM Cli into ranges: range 1: < 30 µL/min/mg; range 2: ≥ 30 µL/min/mg and < 60 µL/min/mg; range 3: ≥ 60 µL/min/mg

# input Hi, small favor: classify Cc1sc2ncnc(SCC(=O)N3CCn4ncnc4C3)c2c1Cl by its MLM Cli when you get a moment.
# output range 2

# input Hi, small favor: classify Cc1sc2ncnc(SCC(=O)N3CC(=O)N(C)C3)c2c1C(F)(F)F by its MLM Cli when you get a moment.
# output range 1

# input Hi, small favor: classify Cc1sc2ncnc(SCC(=O)N3CCN(C)C(=O)C3)c2c1Cl by its MLM Cli when you get a moment.
# output range 2

# input Hi, small favor: classify CN1CN(C(=O)CSc2ncnc3c(C4CC4)c(Cl)sc23)CC1=O by its MLM Cli when you get a moment.
# output range 2

# input Hi, small favor: classify Cc1sc2ncnc(SCC(=O)N3CCn4c(nnc4C(F)(F)F)C3)c2c1Cl by its MLM Cli when you get a moment.
# output range 3

# input Hi, small favor: classify Cc1sc2ncnc(SCC(=O)N3CCn4c(nnc4C4CC4)C3)c2c1Cl by its MLM Cli when you get a moment.
# output range 2

# input Hi, small favor: classify Cc1nc2n(n1)CCN(C(=O)CSc1ncnc3sc(C)c(Cl)c13)C2 by its MLM Cli when you get a moment.
# output range 2

# input Hi, small favor: classify Cc1sc2ncnc(SCC(=O)N3CCn4c(C)nnc4C3)c2c1Cl by its MLM Cli when you get a moment.
# output range 1

# input Hi, small favor: classify CCN1CCN(C(=O)CSc2ncnc3sc(C)c(Cl)c23)CC1=O by its MLM Cli when you get a moment.
# output range 3

# input Hi, small favor: classify CCc1nnc2n1CCN(C(=O)CSc1ncnc3sc(C)c(Cl)c13)C2 by its MLM Cli when you get a moment.
# output range 2

# input Hi, small favor: classify Cc1c(C(F)(F)F)sc2ncnc(SCC(=O)N3CC(=O)N(C)C3)c12 by its MLM Cli when you get a moment.
# output range 1

====

- System: P-gp (MDR1)
- Assay explanation: MDCK-MDR1 cell permeability and efflux
- Assay type: in vitro ADME
- Recorded conditions: dog, MDCK-MDR1; read-out: MDCK-MDR1 efflux ratio (ER)
Recorded efflux ratio values for a group of compounds are listed next.
Answer with the value's number alone.

Would you please look over these solved cases?
> print(dat)
                         chemical.structure  target.or.system  numeric.value
1  CCc1nnc2n1CCN(C(=O)CSc1ncnc3sc(C)c(Cl)c13)C2       P-gp (MDR1)             81
2    Cc1sc2ncnc(SCC(=O)N3CCn4cnnc4C3)c2c1Cl       P-gp (MDR1)             93
3  CCN1CN(C(=O)CSc2ncnc3sc(C)c(Cl)c23)CC1=O       P-gp (MDR1)            1.5
4  Cc1sc2ncnc(SCC(=O)N3CCn4nc(C(F)(F)F)nc4C3)c2c1Cl       P-gp (MDR1)            1.8

# evaluate next
efflux ratio measured on CN1CN(C(=O)CSc2ncnc3c(C4CC4)c(Cl)sc23)CC1=O = 2

====

- Tested on: P-gp (MDR1)
- Assay explanation: MDCK-MDR1 cell permeability and efflux
- Type: in vitro ADME
- Recorded conditions: dog, MDCK-MDR1; read-out: MDCK-MDR1 efflux ratio (ER)
Criterion: efflux ratio strictly under 6. Met: condition met. Not met: condition not met.

Worked cases, answers included:
> print(dat)
                                   compound     category.label
1    Cc1sc2ncnc(SCC(=O)N3CC(=O)N(C)C3)c2c1C      condition met
2  Cc1c(C(F)(F)F)sc2ncnc(SCC(=O)N3CC(=O)N(C)C3)c12      condition met
3    Cc1sc2ncnc(SCC(=O)N3CCn4ncnc4C3)c2c1Cl      condition met
4  Cc1sc2ncnc(SCC(=O)N3CCn4c(nnc4C(F)(F)F)C3)c2c1Cl      condition met
5  Cc1sc2ncnc(SCC(=O)N3CCn4c(C)nnc4C3)c2c1Cl  condition not met

# input Strictly below 6 in efflux ratio? Cc1sc2ncnc(SCC(=O)N3CCn4c(nnc4C4CC4)C3)c2c1Cl
# output condition not met

# input Strictly below 6 in efflux ratio? Cc1nc2n(n1)CCN(C(=O)CSc1ncnc3sc(C)c(Cl)c13)C2
# output condition met

# input Strictly below 6 in efflux ratio? Cc1sc2ncnc(SCC(=O)N3CC(=O)N4CCCC4C3)c2c1Cl (stereo not drawn)
# output condition not met

====

- Target or system: Notum(81–451 Cys330Ser) (Homo sapiens, UniProt Q6P988, C330S)
- Sequence (Q6P988 81-451 C330S): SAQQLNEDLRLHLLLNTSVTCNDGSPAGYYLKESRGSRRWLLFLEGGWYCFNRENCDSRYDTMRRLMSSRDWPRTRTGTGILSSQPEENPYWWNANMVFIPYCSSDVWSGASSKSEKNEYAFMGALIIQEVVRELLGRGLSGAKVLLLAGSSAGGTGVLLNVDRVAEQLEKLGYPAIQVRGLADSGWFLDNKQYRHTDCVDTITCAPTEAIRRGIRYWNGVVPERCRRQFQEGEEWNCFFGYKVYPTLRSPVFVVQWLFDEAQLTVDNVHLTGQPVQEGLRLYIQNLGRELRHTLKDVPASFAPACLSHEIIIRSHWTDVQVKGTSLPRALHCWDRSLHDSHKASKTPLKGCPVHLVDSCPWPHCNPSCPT
- Assay explanation: Notum biochemical OPTS assay (carboxylesterase activity)
- Recorded conditions: OPTS substrate, 1 h incubation; geometric mean ± s.d.
Measurement kind: pIC50
Worth noting: pIC50 values are minus log10 of concentrations stated in mol/L.

> print(dat)
                                   compound  measurement.kind  numeric.value
1  Cc1sc2ncnc(SCC(=O)N3CC(=O)N(C)C3)c2c1C [Compound 21]             pIC50           8.03
2  Cc1sc2ncnc(SCC(=O)N3CC(=O)N4CCCC4C3)c2c1Cl (centres unmarked) [Compound 5k]             pIC50           7.70
3     Cc1cc2c(SCC(=O)O)ncnc2s1 [Compound 6]             pIC50           6.10
4  Cc1sc2ncnc(SCC(=O)N3CC(=O)N(C)C3)c2c1C(F)(F)F [Compound 23]             pIC50           8.15
5  Cc1nn(C)c2ncnc(SCC(=O)O)c12 [Compound 17]             pIC50           5.96

pIC50 measured on Cc1sc2ncnc(SCC(=O)N3CCn4c(nnc4C(F)(F)F)C3)c2c1Cl [Compound 5s] = 7.42

pIC50 measured on O=C(O)CSc1ncnc2[nH]cc(Cl)c12 [Compound 14] = 4.70

pIC50 measured on Cc1nc(SCC(=O)O)c2c(C)c(C)sc2n1 [Compound 8] = 5.68

====

- Target or system: Notum(81–451 Cys330Ser) (Homo sapiens, UniProt Q6P988, C330S)
- Assay explanation: Notum biochemical OPTS assay (carboxylesterase activity)
- Recorded conditions: OPTS substrate, 1 h incubation; geometric mean ± s.d.
Criterion: IC50 strictly under 4 nM. Met: yes (1). Not met: no (0).

Worked cases, answers included:
> print(dat)
                                   compound  category.label
1                  Cn1ccc2c(SCC(=O)O)ncnc21          no (0)
2   Cc1sc2ncnc(SCC(=O)N3CC(=O)N(C)C3)c2c1Cl         yes (1)
3  Cc1sc2ncnc(SCC(=O)N3CC(=O)NC(C)C3)c2c1Cl (stereo not drawn)          no (0)

# input Strictly below 4 nM in IC50? Cc1c(C(F)(F)F)oc2ncnc(SCC(=O)O)c12
# output yes (1)

# input Strictly below 4 nM in IC50? Cc1sc2ncnc(SCC(=O)N3CCn4cnnc4C3)c2c1Cl
# output yes (1)

# input Strictly below 4 nM in IC50? CCN1CN(C(=O)CSc2ncnc3sc(C)c(Cl)c23)CC1=O
# output yes (1)

# input Strictly below 4 nM in IC50? CCN1CCN(C(=O)CSc2ncnc3sc(C)c(Cl)c23)CC1=O
# output no (0)

# input Strictly below 4 nM in IC50? Cc1c(C(F)(F)F)sc2ncnc(SCC(=O)O)c12
# output yes (1)

These entries and their values trace back to paper PMC6961116.
